TARGET_UNDER_TEST: recombinant full-length PfCSP (Plasmodium falciparum circumsporozoite protein, strain NF54) (Plasmodium falciparum NF54, UniProt P19597)
Sequence (P19597 20-375): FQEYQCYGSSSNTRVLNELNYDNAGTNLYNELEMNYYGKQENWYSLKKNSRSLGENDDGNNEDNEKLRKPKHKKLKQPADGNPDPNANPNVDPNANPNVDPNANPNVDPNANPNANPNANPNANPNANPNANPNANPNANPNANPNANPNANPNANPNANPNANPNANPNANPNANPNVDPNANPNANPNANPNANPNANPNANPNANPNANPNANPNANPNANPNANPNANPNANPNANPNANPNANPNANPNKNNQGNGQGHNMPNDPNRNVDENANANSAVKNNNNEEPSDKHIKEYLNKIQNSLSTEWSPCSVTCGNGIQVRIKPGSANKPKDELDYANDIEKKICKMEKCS

BINDER	binding result
CL-447376 (antibody, V domains shown) VH: QVQLVESGGGVVQPGRSLRLSCAASGFNFNNYGMHWVRQAPVMGLEWVAIIWYDGSNKFYADSVKGRFTISRDNSQNTLFLQMNSLRAEDTGIYYCARSGGEMGNFDYWGQGTLVTVSS VL: DIVMTQSPLSLPVTLGQPASISCRSSQSLVYSNGDTYLDWFQLRPGQSPRRLIYKVSHRDSGVPDRFSGSGSGTEFTLRISRVEAEDVGIYYCMQGTHYWTFGQGTEVEIK	binds
CL-444653 (antibody, V domains shown) VH: QVQLVESGGGVVQPGRSLRLSCTASGFTFSTYGMHWVRQAPGKGLEWVAIIWYDGGNKFYADSVKGRFTISRDNSKDTLYLQMNSLRAEDTAVYYCAKAWYKVDDKYSMDVWGQGTTVTVSS VL: DIQMTQSPSTLSASVGDRVTITCRASQSISSWLAWYQQKPGKAPKLLIYKASSLESGVPSRFSGSGSGTEFTLTISGLQPDDFATYYCQQYINYWTFGQGTKVEIK	binds
